test: inhibitors of TNFa-induced NFkB p65 translocation, primary screen, imaging, HUVEC, MLSMR starter and 10KST1 sets (AID 438); conditions: HUVEC TNFa-induced p65 nuclear translocation; measured here: nuclei count (cytotoxicity indicator), at 2.08 µM;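 also: compound added about 3h40 before a 20 min TNFalpha stimulation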
Kind request: treat 500 as inclusive, so cell count at 500 or higher is label 1, anything lower is label 0.

Check the entry COc1cc(OC)cc(-n2nnnc2SCC(=O)N2CCCC2)c1 : does cell count equal or exceed 500?
label 1

---
// inclusive: cell count at least 500? input: O=C(CN(Cc1ccc(F)cc1)C(=O)Cn1nnc2ccccc21)NCC1CCCO1 (configuration not stated)
label 0

For CN(C)S(=O)(=O)N1CCN(c2cccc(Cl)c2)CC1 then?
label 0

Similarly, CCc1nnc(NC(=O)CSc2nnc3ncccn23)s1 ?
label 0

What about this molecule? O=C(CSc1nc2ccccc2[nH]1)N1CCCCC1
label 0
